- System: CCRF-CEM human leukemia cell lines
- Run Description: Growth inhibition assay, CCRF-CEM
- Format: cell-based
- Assay Conditions: read-out: CCRF-CEM IC50, (−) T, (−) H; Table 1; no thymidine, no hypoxanthine
Observed Property: IC50 (µM)

> print(dat)
                                   compound  readout.unit  recorded.number
1  Nc1nc(N)c(CCCCc2ccc(C(=O)NC(CCC(=O)O)C(=O)O)cc2)c(=O)[nH]1 (stereo not shown)            µM              2.7
2  CS[C@@H](CCCc1c(N)nc(N)[nH]c1=O)c1ccc(C(=O)NC(CCC(=O)O)C(=O)O)cc1 (stereo partly drawn) [10S-7, 10S-methylthio-DDACTHF]            µM             0.05
3  Nc1nc(N)c(CCCC(C(=O)C(F)(F)F)c2ccc(C(=O)N[C@@H](CCC(=O)O)C(=O)O)cc2)c(=O)[nH]1 (stereo partly shown)            µM            0.016
4  CS[C@H](CCCc1c(N)nc(N)[nH]c1=O)c1ccc(C(=O)NC(CCC(=O)O)C(=O)O)cc1 (stereo partly drawn) [10R-8, 10R-methylthio-DDACTHF]            µM             0.08

###

A collection of compounds and their measured Ki
- Assayed Target: recombinant human aminoimidazole carboxamide ribonucleotide transformylase (hAICAR Tfase) (Homo sapiens, UniProt P31939)
- Sequence (P31939 whole entry): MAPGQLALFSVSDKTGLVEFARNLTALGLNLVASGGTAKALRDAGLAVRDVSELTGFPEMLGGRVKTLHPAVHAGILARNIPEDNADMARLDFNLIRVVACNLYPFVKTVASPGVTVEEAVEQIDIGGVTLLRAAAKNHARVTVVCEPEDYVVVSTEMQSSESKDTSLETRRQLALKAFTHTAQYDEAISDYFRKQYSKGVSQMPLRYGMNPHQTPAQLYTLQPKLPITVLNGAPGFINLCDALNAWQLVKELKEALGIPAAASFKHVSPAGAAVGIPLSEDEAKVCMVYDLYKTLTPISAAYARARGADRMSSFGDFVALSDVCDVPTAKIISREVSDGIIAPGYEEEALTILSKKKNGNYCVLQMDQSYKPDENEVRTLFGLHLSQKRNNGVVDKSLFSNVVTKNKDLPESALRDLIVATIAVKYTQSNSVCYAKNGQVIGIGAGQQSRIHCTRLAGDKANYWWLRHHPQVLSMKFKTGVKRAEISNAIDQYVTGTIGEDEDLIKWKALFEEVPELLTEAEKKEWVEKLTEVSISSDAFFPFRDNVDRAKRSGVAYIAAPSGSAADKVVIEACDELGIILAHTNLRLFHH
- Run Description: hAICAR Tfase enzyme inhibition assay
- Format: biochemical
- Assay Conditions: read-out: Inhibition Ki, hAICAR Tfase; Dixon plots
Observed Property: Ki

> print(dat)
                                   compound    result
1  Nc1nc(N)c(CCCCc2ccc(C(=O)NC(CCC(=O)O)C(=O)O)cc2)c(=O)[nH]1 (stereo not shown)     20 µM
2  CS[C@@H](CCCc1c(N)nc(N)[nH]c1=O)c1ccc(C(=O)NC(CCC(=O)O)C(=O)O)cc1 (stereo partly drawn) [10S-7, 10S-methylthio-DDACTHF]  > 100 µM
3  Nc1nc(N)c(CCCC(C(=O)C(F)(F)F)c2ccc(C(=O)N[C@@H](CCC(=O)O)C(=O)O)cc2)c(=O)[nH]1 (stereo partly shown)  > 100 µM
4  CS[C@H](CCCc1c(N)nc(N)[nH]c1=O)c1ccc(C(=O)NC(CCC(=O)O)C(=O)O)cc1 (stereo partly drawn) [10R-8, 10R-methylthio-DDACTHF]  > 100 µM

###

- Assayed Target: recombinant human aminoimidazole carboxamide ribonucleotide transformylase (hAICAR Tfase) (Homo sapiens, UniProt P31939)
- Run Description: hAICAR Tfase enzyme inhibition assay
- Type: biochemical
pKi: −log10 of the molar value.
Observed Property: pKi

> print(dat)
                                   compound  observed.property  result
1  Nc1nc2c(c(=O)[nH]1)C[C@@H](CCc1ccc(C(=O)N[C@@H](CCC(=O)O)C(=O)O)cc1)CN2 [3 Lometrexol, Lometrexol]                pKi  < 4.00

###

A collection of molecules and their measured pIC50
- Tested on: CCRF-CEM/MTX
- Run Description: Growth inhibition assay, RFC-deficient mutant cells
- Assay type: cell-based, human
- Assay Conditions: read-out: CCRF-CEM/MTX IC50, (−) T, (−) H
pIC50: −log10 of the molar value.
Observed Property: pIC50

> print(dat)
                                   molecule  assayed.target  observed.property  result.qualifier  recorded.number
1  CS[C@@H](CCCc1c(N)nc(N)[nH]c1=O)c1ccc(C(=O)NC(CCC(=O)O)C(=O)O)cc1 (stereo partly drawn) [10S-7, 10S-methylthio-DDACTHF]    CCRF-CEM/MTX              pIC50                 =             7.22
2  CS[C@H](CCCc1c(N)nc(N)[nH]c1=O)c1ccc(C(=O)NC(CCC(=O)O)C(=O)O)cc1 (stereo partly drawn) [10R-8, 10R-methylthio-DDACTHF]    CCRF-CEM/MTX              pIC50                 =             7.15
3  Nc1nc(N)c(CCCCc2ccc(C(=O)NC(CCC(=O)O)C(=O)O)cc2)c(=O)[nH]1 (stereo not drawn) [DDACTHF]    CCRF-CEM/MTX              pIC50                 <             4.00
